Experiment: Metabolic stability in cynomolgus monkey intestine S9 fraction assessed as compound remaining at 10 uM after 60 mins by HPLC analysis in absence of NADP
Format: ADME, tissue-based, Macaca fascicularis
Conditions: read-out: Stability

compound	remaining at 1 h, 10 µM [%]
C[C@H](NP(=O)(OC[C@H]1O[C@@H](n2cnc3c(=O)[nH]c(N)nc32)[C@](C)(O)[C@@H]1O)Oc1cccc2ccccc12)C(=O)OCC(C)(C)C (stereo partly drawn)	68
CC[C@H](C)[C@H](NP(=O)(OC[C@H]1O[C@@H](n2cnc3c(=O)[nH]c(N)nc32)[C@](C)(O)[C@@H]1O)Oc1cccc2ccccc12)C(=O)OCc1ccccc1 (stereo partly drawn)	95
CC(C)OC(=O)[C@H](C)NP(=O)(OC[C@H]1O[C@@H](n2cnc3c(=O)[nH]c(N)nc32)[C@](C)(O)[C@@H]1O)Oc1cccc2ccccc12 (stereo partly drawn)	87

###

Test: Metabolic stability in dog plasma assessed as compound remaining at 1 ug/ml after 30 mins
Type: ADME, cell-free, Canis lupus familiaris
Conditions: read-out: Stability
remaining at 0.5 h, 1 ug/ml values, listed per item
quantity: remaining at 0.5 h, 1 ug/ml (%)

compound	quantity	units-symbol	observed-measurement
CC(C)[C@H](NP(=O)(OC[C@H]1O[C@@H](n2cnc3c(=O)[nH]c(N)nc32)[C@](C)(O)[C@@H]1O)Oc1cccc2ccccc12)C(=O)OC1CCCCC1 (stereo partly drawn)	remaining at 0.5 h, 1 ug/ml	%	95
CC(OC(=O)[C@H](C)NP(=O)(OC[C@H]1O[C@@H](n2cnc3c(=O)[nH]c(N)nc32)[C@](C)(O)[C@@H]1O)Oc1cccc2ccccc12)c1ccccc1 (mixture of isomers)	remaining at 0.5 h, 1 ug/ml	%	97
Cc1ccccc1COC(=O)[C@@H](NP(=O)(OC[C@H]1O[C@@H](n2cnc3c(=O)[nH]c(N)nc32)[C@](C)(O)[C@@H]1O)Oc1cccc2ccccc12)C(C)C (stereo partly drawn)	remaining at 0.5 h, 1 ug/ml	%	100

###

remaining at 0.5 h, 1 ug/ml values, listed per item
Assay: Metabolic stability in mouse plasma assessed as compound remaining at 1 ug/ml after 30 mins
Type: ADME, cell-free
Settings: read-out: Stability

molecule	units-symbol	remaining at 0.5 h, 1 ug/ml
CC(C)(NP(=O)(OC[C@H]1O[C@@H](n2cnc3c(=O)[nH]c(N)nc32)[C@](C)(O)[C@@H]1O)Oc1cccc2ccccc12)C(=O)OCc1ccccc1 (stereo partly drawn)	%	0
CC(C)[C@H](NP(=O)(OC[C@H]1O[C@@H](n2cnc3c(=O)[nH]c(N)nc32)[C@](C)(O)[C@@H]1O)Oc1cccc2ccccc12)C(=O)OCc1ccc(Cl)cc1 (stereo partly drawn)	%	94
C[C@@]1(O)[C@H](O)[C@@H](COP(=O)(N[C@@H](Cc2ccccc2)C(=O)OCc2ccccc2)Oc2cccc3ccccc23)O[C@H]1n1cnc2c(=O)[nH]c(N)nc21 (stereo partly drawn)	%	1
